Assay: Protein binding in human plasma at 1 uM after 6 hrs by LC/MS/MS based equilibrium dialysis method
Type: ADME, cell-free
Conditions: read-out: PPB (converted)
QUANTITY_NAME: fraction unbound at 6 h, 1 µM
Give bare numbers.

The cases that follow already have their fraction unbound at 6 h, 1 µM on record.
C[C@@H]1c2ncn(-c3ccc(F)cc3)c2CCN1C(=O)c1cccc(C(F)(F)F)c1Cl	0.04
C[C@@H]1c2ncn(-c3ncc(F)cn3)c2CCN1C(=O)c1cccc(C(F)(F)F)c1Cl	0.048
C[C@@H]1c2ncn(-c3ccc(F)cn3)c2CCN1C(=O)c1cccc(C(F)(F)F)c1Cl	0.055

Next compound, fraction unbound at 6 h, 1 µM to be filled in.
Suppose we examine the compound C[C@@H]1c2ncn(-c3ccccn3)c2CCN1C(=O)c1cccc(C(F)(F)F)c1Cl ; what fraction unbound at 6 h, 1 µM value has been reported?
0.047

---

Molecular target: CYP3A4 (Homo sapiens)
Sequence (P08684 whole entry): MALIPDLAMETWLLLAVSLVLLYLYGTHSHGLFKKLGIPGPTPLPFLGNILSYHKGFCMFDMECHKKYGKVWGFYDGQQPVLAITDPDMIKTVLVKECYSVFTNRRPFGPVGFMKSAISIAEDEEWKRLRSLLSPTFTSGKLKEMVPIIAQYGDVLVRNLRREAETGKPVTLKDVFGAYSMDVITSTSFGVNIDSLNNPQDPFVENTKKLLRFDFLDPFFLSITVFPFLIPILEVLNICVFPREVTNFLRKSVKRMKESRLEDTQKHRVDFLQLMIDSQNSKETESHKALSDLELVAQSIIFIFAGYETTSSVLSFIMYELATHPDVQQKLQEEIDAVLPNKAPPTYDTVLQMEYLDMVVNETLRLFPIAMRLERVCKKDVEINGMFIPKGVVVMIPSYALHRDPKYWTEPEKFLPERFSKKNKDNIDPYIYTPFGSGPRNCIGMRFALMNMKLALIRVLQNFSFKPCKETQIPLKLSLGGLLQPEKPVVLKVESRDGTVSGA
Experiment: Inhibition of CYP3A4 in human liver microsomes using midazolam as substrate assessed as reduction in 4-OH-midazolam formation at 0.313 uM by LC/MS/MS analysis
Type: ADME
Conditions: probe midazolam
QUANTITY_NAME: inhibition at 0.313 µM (%)
One number for each entry, in %.

Suppose we examine the compound C[C@@H]1c2ncn(-c3ccc(F)cn3)c2CCN1C(=O)c1cccc(C(F)(F)F)c1Cl ; what inhibition at 0.313 µM value has been reported?
0.1
